Every entry's value here was drawn from patent US20240148821A1.

Target Or System: protein-protein interaction between Kras and SOS1 (biotin-tagged human Kras loaded with GDP, His-tagged human SOS1) (Homo sapiens (Human), UniProt P01116, G12D)
Protocol Details: Protein-protein interaction inhibition between Kras and SOS1 (KrasG12D-SOS PPI) using AlphaScreen;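 further: kras produced in E. coli, Ni-coupled donor beads and streptavidin acceptor beads, excitation 680 nm with emission detected at 520–620 nm via singlet oxygen transfer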
Assay type: biochemical
Experimental Setup: AlphaScreen; biotin-tagged human Kras loaded with GDP, His-tagged human SOS1; read-out: KRAS G12D-SOS PPI IC50
Numbered stars: 1 amine (or outer) side, 2 acyl side, 3 side chain; on linkers, the order of the positions; unused ones are H or OH. Square brackets hold non-standard residues; d marks the D form. Peptide text beside a SMILES is read from it. hPhe(3-Cl-4-CF3) = N[C@@H](CCc1ccc(C(F)(F)F)c(Cl)c1)C(=O)O; NEtPhe(4-CF3) = CCN[C@@H](Cc1ccc(C(F)(F)F)cc1)C(=O)O; NMedβ3hAla = C[C@H](CC(=O)[*:2])N(C)[*:1]; NMeGly(cPent) = CN[C@H](C(=O)O)C1CCCC1; Hyp = O=C(O)[C@@H]1C[C@@H](O)CN1; NMeL = CN[C@@H](CC(C)C)C(=O)O; Ac5c = NC1(C(=O)O)CCCC1; Aze = O=C(O)[C@@H]1CCN1; Sar = CNCC(=O)O
Measured Quantity: IC50 (nM)

CCO[C@@H]1C[C@H]2C(=O)NC3(CCCC3)C(=O)N(C)[C@@H](C3CCCC3)C(=O)N(C)[C@H](C)CC(=O)N(C)[C@@H](CC(C)C)C(=O)N[C@@H]([C@@H](C)CC)C(=O)N[C@@H](C)C(=O)N3CC[C@H]3C(=O)N(CC)[C@@H](Cc3ccc(C(F)(F)F)cc3)C(=O)N(C)CC(=O)N[C@@H](CCc3ccc(C(F)(F)F)c(Cl)c3)C(=O)N2C1 [Compound 401] (cyclo(A[Aze][NEtPhe(4-CF3)][Sar][hPhe(3-Cl-4-CF3)][Hyp](Et)[Ac5c][NMeGly(cPent)][NMedβ3hAla][NMeL]I))
3.6
